- target: human progesterone receptor-A [PRA] isoform (Homo sapiens)
- Construct: host or cells: insect SF21 cells (baculovirus)
- Sequence (P06401 165-933): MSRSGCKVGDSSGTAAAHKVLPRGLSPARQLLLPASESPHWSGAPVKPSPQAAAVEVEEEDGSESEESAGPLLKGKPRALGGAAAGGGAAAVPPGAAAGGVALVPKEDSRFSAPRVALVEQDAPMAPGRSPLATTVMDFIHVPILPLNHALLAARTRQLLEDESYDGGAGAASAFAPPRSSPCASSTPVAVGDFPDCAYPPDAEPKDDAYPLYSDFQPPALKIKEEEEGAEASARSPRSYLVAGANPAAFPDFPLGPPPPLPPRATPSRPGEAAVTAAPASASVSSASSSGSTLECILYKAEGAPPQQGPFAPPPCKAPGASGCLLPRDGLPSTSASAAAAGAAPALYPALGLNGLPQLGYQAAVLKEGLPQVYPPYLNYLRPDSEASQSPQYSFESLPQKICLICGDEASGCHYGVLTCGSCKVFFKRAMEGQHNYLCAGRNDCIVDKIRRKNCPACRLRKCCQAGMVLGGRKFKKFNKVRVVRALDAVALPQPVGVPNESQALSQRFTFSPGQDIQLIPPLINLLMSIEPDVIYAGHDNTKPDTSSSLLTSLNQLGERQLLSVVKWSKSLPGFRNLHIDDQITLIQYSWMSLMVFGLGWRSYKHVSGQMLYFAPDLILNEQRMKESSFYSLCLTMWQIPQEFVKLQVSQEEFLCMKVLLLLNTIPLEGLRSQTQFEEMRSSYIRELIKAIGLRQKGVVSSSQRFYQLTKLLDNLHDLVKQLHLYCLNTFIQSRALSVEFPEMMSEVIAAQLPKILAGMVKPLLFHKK
- protocol-text: Radioligand binding with human progesterone receptor cytosol ([3H]-progesterone competition)
- measurement-setup: PRA cytosol expressed in insect SF21 cells, [3H]Prog ~0.8 nM, 4° C. overnight; Ki by Cheng-Prusoff, KL ~4.5 nM; read-out: Ki (nM) PR
Please use met for Ki under 5000 nM and not met for everything else, ties included.

compound	qualitative-label
COc1cccc2c1-c1ccc3c(c1C(C#N)O2)C(C)=CC(C)(C)N3 (centres unmarked)	not met
C=CCCCC1Oc2ccc(O)c(OC)c2-c2ccc3c(c21)C(C)=CC(C)(C)N3 (centres unmarked)	met
CC1=CC(C)(C)Nc2ccc3c(c21)C(c1cc(Cl)cc(Cl)c1)Oc1cccc(O)c1-3 (centres unmarked)	not met
COc1cccc2c1-c1ccc3c(c1C(C1C=CCCCC1)O2)C(C)=CC(C)(C)N3 (mixture of isomers)	not met
C=Cc1cccc2c1-c1ccc3c(c1C(C1C=C(C)CCC1)O2)C(C)=CC(C)(C)N3 (centres unmarked)	not met

Ask: Record COc1cccc2c1-c1ccc3c(c1C(C1CCCC1)O2)C(C)=CC(C)(C)N3 (centres unmarked) : is its Ki strictly below 5000 nM?
Reply: not met

Ask: Then what about the compound COc1cccc(C2Oc3cccc(OC)c3-c3ccc4c(c32)C(C)=CC(C)(C)N4)c1 (centres unmarked) ?
Reply: not met

Ask: Then what about the compound C=CCC1Oc2cccc(C(=O)OC)c2-c2ccc3c(c21)C(C)=CC(C)(C)N3 (centres unmarked) ?
Reply: met

Ask: Then what about the compound COCCNc1cc(C)cc(C2Oc3cccc(OC)c3-c3ccc4c(c32)C(C)=CC(C)(C)N4)c1 (centres unmarked) ?
Reply: not met

Ask: Then what about the compound COc1cccc2c1-c1ccc3c(c1C(CCCO)O2)C(C)=CC(C)(C)N3 (centres unmarked) ?
Reply: not met

Ask: Then what about the compound C=CCC1Oc2cccc(C=O)c2-c2ccc3c(c21)C(C)=CC(C)(C)N3 (centres unmarked) ?
Reply: met

Ask: Then what about the compound C=CCC1Oc2c(C)ccc(OC)c2-c2ccc3c(c21)C(C)=CC(C)(C)N3 (centres unmarked) ?
Reply: not met

Ask: Then what about the compound COc1cccc2c1-c1ccc3c(c1C(=Cc1ccccn1)O2)C(C)=CC(C)(C)N3 ?
Reply: not met

Ask: Then what about the compound C#Cc1cccc2c1-c1ccc3c(c1C(CC=C)O2)C(C)=CC(C)(C)N3 (centres unmarked) ?
Reply: met

Ask: Then what about the compound COc1cccc2c1-c1ccc3c(c1C(c1ccc(OCSC)cc1)O2)C(C)=CC(C)(C)N3 (centres unmarked) ?
Reply: not met

Ask: Then what about the compound COc1cccc2c1-c1ccc3c(c1C(/C=C/COC(=O)N(C)C)O2)C(C)=CC(C)(C)N3 (centres unmarked) ?
Reply: not met

Ask: Then what about the compound C=CCC1Oc2cccc(-c3ccco3)c2-c2ccc3c(c21)C(C)=CC(C)(C)N3 (centres unmarked) ?
Reply: not met
